I'd appreciate it if you could supply KIDNEY_L values for the items below.
Organism: Rattus norvegicus
Assay: Open TG-GATES - Regimen: Single
Format: toxicity, organism-based, Sprague-Dawley
Set-up: regimen Single, gender Male, age 6 weeks
Settings: in vivo, po, 0 mg/kg, 6 h, tissue Kidney, route gavage, dose level Control
One number for each entry, in g.

>  <MOLECULE>
Cc1ccc(C)c(OCCCC(C)(C)C(=O)O)c1

>  <EXPERIMENTAL ENDPOINT>
KIDNEY_L

>  <OBS VALUE>
0.9

$$$$
>  <MOLECULE>
COC1=CC(=O)C[C@@H](C)[C@]12Oc1c(Cl)c(OC)cc(OC)c1C2=O

>  <EXPERIMENTAL ENDPOINT>
KIDNEY_L

>  <OBS VALUE>
1

$$$$
>  <MOLECULE>
CCOC(=O)CCC(=O)O[C@H]1[C@H](O[C@@H]2[C@@H](C)[C@H](O[C@H]3C[C@@](C)(OC)[C@@H](O)[C@H](C)O3)[C@@H](C)C(=O)O[C@H](CC)[C@@](C)(O)[C@H](O)[C@@H](C)C(=O)[C@H](C)C[C@@]2(C)O)O[C@H](C)C[C@@H]1N(C)C [ERYTHROMYCIN ETHYLSUCCINATE]

>  <EXPERIMENTAL ENDPOINT>
KIDNEY_L

>  <OBS VALUE>
0.9

$$$$
>  <MOLECULE>
O=C(CCCN1CCC(O)(c2ccc(Cl)cc2)CC1)c1ccc(F)cc1

>  <EXPERIMENTAL ENDPOINT>
KIDNEY_L

>  <OBS VALUE>
0.9

$$$$
>  <MOLECULE>
NNC(=O)c1ccncc1

>  <EXPERIMENTAL ENDPOINT>
KIDNEY_L

>  <OBS VALUE>
1

$$$$
>  <MOLECULE>
CC/C(=C(\c1ccccc1)c1ccc(OCCN(C)C)cc1)c1ccccc1

>  <EXPERIMENTAL ENDPOINT>
KIDNEY_L

>  <OBS VALUE>
0.8

$$$$
>  <MOLECULE>
CCCNC(=O)NS(=O)(=O)c1ccc(Cl)cc1 [CHLORPROPAMIDE]

>  <EXPERIMENTAL ENDPOINT>
KIDNEY_L

>  <OBS VALUE>
0.9

$$$$
>  <MOLECULE>
CN1C(=O)CN=C(c2ccccc2)c2cc(Cl)ccc21

>  <EXPERIMENTAL ENDPOINT>
KIDNEY_L

>  <OBS VALUE>
1

$$$$
>  <MOLECULE>
CN(C)CCCN1c2ccccc2CCc2ccccc21

>  <EXPERIMENTAL ENDPOINT>
KIDNEY_L

>  <OBS VALUE>
0.9

$$$$
>  <MOLECULE>
COc1cc2c(c(OC)c1OC)-c1ccc(OC)c(=O)cc1[C@@H](NC(C)=O)CC2

>  <EXPERIMENTAL ENDPOINT>
KIDNEY_L

>  <OBS VALUE>
1

$$$$

Give KIDNEY_L for each listed item.
1. CCOc1ccc(NC(=O)CC(C)O)cc1 (configuration not stated)
2. CN(C)CCCN1c2ccccc2CCc2ccc(Cl)cc21
3. CC(C)OC(=O)C(C)(C)Oc1ccc(C(=O)c2ccc(Cl)cc2)cc1 [FENOFIBRATE]
4. CN(C)CCN(Cc1cccs1)c1ccccn1

Output line:
[0.9, 1, 0.8, 0.9]

Give KIDNEY_L for each listed item.
1. COc1ccc2[nH]c([S+]([O-])Cc3ncc(C)c(OC)c3C)nc2c1 (configuration not stated)
2. CC1=C(/C=C/C(C)=C/C=C/C(C)=C/CO)C(C)(C)CCC1
3. NC(N)=Nc1nc(CSCCC(N)=NS(N)(=O)=O)cs1

Output line:
1: 1; 2: 1; 3: 1
